Assay text: cytotoxicity in ldlA[mSR-BI] CHO cells, dose response, cytotoxicity control for SR-BI HDL uptake inhibitor project, cell-based, CellTiter-Glo luminescence, 24 h, dry powder, set 2 (AID 588829)
Condition parameters: ldlA[mSR-BI] CHO cells viability, CellTiter-Glo ATP luminescence, 24 h; at 35 µM (top of the series)
Consider the following compounds; for each one, report its activity change, negative = toxicity.
Answers are plain numbers, in %.

Here's what some known entries look like.
CCC(=O)N1CC(C)(C)c2cc(-c3csc(NC(=O)c4cc(OC)cc(OC)c4)n3)ccc21: 1.55
CCC(=O)N1CCc2cc(-c3csc(NC(=O)c4cccc(OC)c4)n3)ccc21: 2.38
COc1cc(OC)cc(C(=O)Nc2nc(-c3ccc4c(c3)CCN4C(=O)CN(C)C)cs2)c1: 8.9
CC(C)(Sc1cc(C(C)(C)C)c(O)c(C(C)(C)C)c1)Sc1cc(C(C)(C)C)c(O)c(C(C)(C)C)c1: 14.8

Would you mind listing activity change, negative = toxicity for each of the following compounds?
1. COc1ccc(-c2cc(CC(=O)N(C3CCCCC3)C(C)C(=O)NC3CCCC3)no2)cc1OC (centres undefined)
2. COCC(=O)N1CCc2cc(-c3csc(NC(=O)c4cc(OC)cc(OC)c4)n3)ccc21
3. COc1c(NC(=O)C(=O)c2ccc(OCCN3CCOCC3)c3ccccc23)cc(C(C)(C)C)cc1NS(C)(=O)=O
4. COc1cc(OC)cc(C(=O)Nc2nc(-c3ccc4c(c3)CCN4C(=O)OC(C)(C)C)cs2)c1
5. CC1CCC/C=C/C2CC(O)CC2C(O)/C=C\C(=O)O1 (centres undefined)
6. CC(=O)N1CCc2cc(-c3nc(NC(=O)c4cccc(OC(F)(F)F)c4)sc3C)ccc21
7. C[C@H](C(=O)NC1CCCC1)N(C(=O)Cn1nnc(-c2ccc3c(c2)OCO3)n1)C1CCCCC1

Response given:
1. 13.9
2. 10.9
3. -4.11
4. 12.9
5. -13.3
6. -14.1
7. 11.2

---

Assay text: cytotoxicity in ldlA[mSR-BI] CHO cells, dose response, cytotoxicity control for SR-BI HDL uptake inhibitor project, cell-based, CellTiter-Glo luminescence, 24 h, dry powder, set 2 (AID 588829)
Condition parameters: ldlA[mSR-BI] CHO cells viability, CellTiter-Glo ATP luminescence, 24 h; at 35 µM (top of the series)
The source made the active and inactive calls.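 The calls were made as follows: active = compounds lowering the cell energy light signal whose fitted half-effect dose is at most twice the top tested dose; inconclusive = flat curve with a 30 to 70% drop, or poor fit; inactive = the rest.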
Record form. Attribute: activity change, negative = toxicity. Fill in for each entry.

Worked set:
Cc1ccc2oc(-c3cccc(NC(=O)c4cc(-n5cnnc5)ccc4Cl)c3)nc2c1: -6.36% (inactive)
CCNC(=O)N1CCc2cc(-c3csc(NC(=O)c4cc(OC)cc(OC)c4)n3)ccc21: 9.7% (inactive)

Could you now look at the following compound, please?
Challenge: Look up activity change, negative = toxicity: C[C@@H]1CN([C@H](C)CO)C(=O)c2cc(NC(=O)Cc3cn(C)c4ccccc34)ccc2O[C@H]1CN(C)S(=O)(=O)c1ccc(Cl)cc1
Response given: 3.86% (inactive)

Taken from PubChem BioAssay AID588829.
